Would you mind telling me the reported self-splicing fitness (ln) of each entry?
# Assay method text: self-splicing fitness, log relative to wild type (ln ratio); higher = more splicing; Tetrahymena group I intron in knt gene, E. coli kanamycin selection, DiMSum; sequences stand for … in CUCUCU…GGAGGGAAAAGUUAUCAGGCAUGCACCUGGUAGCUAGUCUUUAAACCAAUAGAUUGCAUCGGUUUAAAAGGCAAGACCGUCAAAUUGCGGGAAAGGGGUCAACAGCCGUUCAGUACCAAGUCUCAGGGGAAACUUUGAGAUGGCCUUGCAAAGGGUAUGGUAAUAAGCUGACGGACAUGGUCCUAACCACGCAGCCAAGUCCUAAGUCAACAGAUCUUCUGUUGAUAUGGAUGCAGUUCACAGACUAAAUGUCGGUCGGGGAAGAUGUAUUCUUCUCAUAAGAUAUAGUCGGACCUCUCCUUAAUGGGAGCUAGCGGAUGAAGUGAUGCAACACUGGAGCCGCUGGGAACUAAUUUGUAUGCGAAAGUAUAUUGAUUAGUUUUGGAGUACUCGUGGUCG;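 also: selection with 25 µg/mL kanamycin versus none on LB agar overnight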
# Assay context: 30 °C
Answers are plain numbers.

As a guide, the following entries are already answered.
{"columns": ["Ordered residues", "Attribute measured", "Value"],
 "data": [
  ["GAUAAGCAAUAUUACGCCGU", "self-splicing fitness (ln)", -0.976],
  ["UUGGAGCAAUAUUACGUCUC", "self-splicing fitness (ln)", -2.96],
  ["UUUGAGCAAUAUUACGUGAU", "self-splicing fitness (ln)", -2.95],
  ["GGGUAGCAAUAUUACGCAGA", "self-splicing fitness (ln)", -2.97],
  ["CGGGAGCAAUAUUACGCGAC", "self-splicing fitness (ln)", -3.85]
]}

Give one value of self-splicing fitness (ln) per listed sequence.
1. CAUAAGCAAUAUUACGCCAG
2. UGUGAGCAAUAUUACGUGCG
3. GCAUAGCAAUAUUACGGGGU
4. AAGAAGCAAUAUUACGAUUA
5. ACUGAGCAAUAUUACGAGUC
6. GCAAAGCAAUAUUACGAUCU

Reply:
[-1.42, -1.36, -3.74, -0.809, -3.18, -0.767]

* * *

Would you mind telling me the reported self-splicing fitness (ln) of each entry?
# Assay method text: self-splicing fitness, log relative to wild type (ln ratio); higher = more splicing; Tetrahymena group I intron in knt gene, E. coli kanamycin selection, DiMSum; sequences stand for … in CUCUCU…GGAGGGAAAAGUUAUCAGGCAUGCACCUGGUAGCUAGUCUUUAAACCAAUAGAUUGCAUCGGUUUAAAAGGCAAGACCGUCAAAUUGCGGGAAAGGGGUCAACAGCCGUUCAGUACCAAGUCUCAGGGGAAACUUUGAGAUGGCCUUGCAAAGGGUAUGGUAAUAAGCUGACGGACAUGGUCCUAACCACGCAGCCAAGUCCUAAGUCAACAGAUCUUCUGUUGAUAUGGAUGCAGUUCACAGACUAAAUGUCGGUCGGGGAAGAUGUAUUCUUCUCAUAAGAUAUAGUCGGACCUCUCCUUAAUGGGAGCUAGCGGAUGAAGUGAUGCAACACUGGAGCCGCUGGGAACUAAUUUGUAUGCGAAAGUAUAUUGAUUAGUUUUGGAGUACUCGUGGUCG
# Assay context: 30 °C
One number for each entry.

As a guide, the following entries are already answered.
{"columns": ["Ordered residues", "self-splicing fitness (ln)"],
 "data": [
  ["AUCAAGCAAUAUUACGAGUC", -3.08],
  ["AUCUAGCAAUAUUACGUUUU", -2.93],
  ["UGCUAGCAAUAUUACGUGGA", -3]
]}

Now consider the entry below.
Task item: Given the sequence CUCUAGCAAUAUUACGUGUG , what is its reported self-splicing fitness (ln)?
Reply: -2.93

* * *

# Assay method text: self-splicing fitness, log relative to wild type (ln ratio); higher = more splicing; Tetrahymena group I intron in knt gene, E. coli kanamycin selection, DiMSum; sequences stand for … in CUCUCU…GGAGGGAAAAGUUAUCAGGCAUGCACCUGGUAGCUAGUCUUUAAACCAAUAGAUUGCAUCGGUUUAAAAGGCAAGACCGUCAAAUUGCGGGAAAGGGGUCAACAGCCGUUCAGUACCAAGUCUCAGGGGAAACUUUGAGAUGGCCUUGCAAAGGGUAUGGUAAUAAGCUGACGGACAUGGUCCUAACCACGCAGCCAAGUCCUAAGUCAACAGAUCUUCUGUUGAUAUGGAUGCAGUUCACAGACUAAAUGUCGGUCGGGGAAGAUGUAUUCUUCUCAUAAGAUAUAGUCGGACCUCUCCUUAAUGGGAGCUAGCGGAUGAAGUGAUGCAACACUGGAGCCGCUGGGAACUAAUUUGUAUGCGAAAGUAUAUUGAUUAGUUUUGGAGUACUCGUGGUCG
# Assay context: 30 °C
Attribute measured: self-splicing fitness (ln)
Answers are plain numbers.

As a guide, the following entries are already answered.
{"columns": ["Ordered residues", "self-splicing fitness (ln)"],
 "data": [
  ["AUCAAGCAAUAUUACGUCAU", -2.05],
  ["UCCUAGCAAUAUUACGGUAG", -3.32],
  ["CCCGAGCAAUAUUACGUGGG", -3.97],
  ["CCAAAGCAAUAUUACGGUAA", -3.35],
  ["CCUUAGCAAUAUUACGAUGU", -2.14]
]}

Give one value of self-splicing fitness (ln) per listed sequence.
1. AGAAAGCAAUAUUACGUUUC
2. AUGUAGCAAUAUUACGUCCG
3. GGAUAGCAAUAUUACGUUGG
4. AUCAAGCAAUAUUACGUCAC
5. GUUGAGCAAUAUUACGGUUG

Reply:
-3.82
-2.71
-2.7
-2.32
-3.56

Give one value of self-splicing fitness (ln) per listed sequence.
1. ACGCAGCAAUAUUACGAGGU
2. CGCUAGCAAUAUUACGCGAG

Reply:
1: -3.55; 2: -2.93

* * *

Would you mind telling me the reported self-splicing fitness (ln) of each entry?
# Assay method text: self-splicing fitness, log relative to wild type (ln ratio); higher = more splicing; Tetrahymena group I intron in knt gene, E. coli kanamycin selection, DiMSum; sequences stand for … in CUCUCU…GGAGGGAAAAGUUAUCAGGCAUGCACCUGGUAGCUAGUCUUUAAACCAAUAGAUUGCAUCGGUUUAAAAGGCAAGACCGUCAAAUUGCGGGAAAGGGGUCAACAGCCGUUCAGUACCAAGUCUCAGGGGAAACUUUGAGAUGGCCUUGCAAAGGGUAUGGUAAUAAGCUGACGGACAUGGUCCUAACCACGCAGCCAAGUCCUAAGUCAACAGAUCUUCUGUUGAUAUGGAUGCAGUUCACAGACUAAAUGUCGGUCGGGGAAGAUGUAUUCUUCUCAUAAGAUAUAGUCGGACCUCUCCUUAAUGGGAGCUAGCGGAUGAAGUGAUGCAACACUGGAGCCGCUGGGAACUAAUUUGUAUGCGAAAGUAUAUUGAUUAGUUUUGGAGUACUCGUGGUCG
# Assay context: 37 °C
One number for each entry.

As a guide, the following entries are already answered.
{"columns": ["Ordered residues", "self-splicing fitness (ln)"],
 "data": [
  ["UCUGAGCAAUAUUACGGCCU", -1.6],
  ["UCAUAGCAAUAUUACGUGUU", -1.57],
  ["UGUAAGCAAUAUUACGCGUU", -0.234]
]}

Give one value of self-splicing fitness (ln) per listed sequence.
1. AGAUAGCAAUAUUACGUAUC
2. ACAGAGCAAUAUUACGAUAG
3. GCAUAGCAAUAUUACGCCGC

Reply:
1. -1.71
2. -3.02
3. -1.28

* * *

# Assay method text: self-splicing fitness, log relative to wild type (ln ratio); higher = more splicing; Tetrahymena group I intron in knt gene, E. coli kanamycin selection, DiMSum; sequences stand for … in CUCUCU…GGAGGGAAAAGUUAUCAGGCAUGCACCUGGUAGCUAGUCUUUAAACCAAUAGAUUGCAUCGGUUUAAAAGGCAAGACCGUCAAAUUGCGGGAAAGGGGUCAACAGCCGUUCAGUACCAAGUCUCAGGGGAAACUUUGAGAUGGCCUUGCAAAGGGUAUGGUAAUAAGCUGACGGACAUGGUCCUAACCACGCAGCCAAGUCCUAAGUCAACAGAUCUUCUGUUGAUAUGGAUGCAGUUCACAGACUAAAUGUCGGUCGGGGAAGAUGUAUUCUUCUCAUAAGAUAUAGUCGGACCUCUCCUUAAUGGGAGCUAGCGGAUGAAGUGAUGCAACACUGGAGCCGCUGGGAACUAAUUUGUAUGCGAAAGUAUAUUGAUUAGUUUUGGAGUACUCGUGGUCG
# Assay context: 30 °C
Values of self-splicing fitness (ln) greater than or equal to -2 map to Condition met; values below map to Condition not met.

Task item: # check: self-splicing fitness (ln) of UGCUAGCAAUAUUACGUACU is greater than or equal to -2
Reply: Condition met

Task item: # check: self-splicing fitness (ln) of UGGCAGCAAUAUUACGCGUA is greater than or equal to -2
Reply: Condition met

Task item: # check: self-splicing fitness (ln) of ACAAAGCAAUAUUACGGGCC is greater than or equal to -2
Reply: Condition not met

Task item: # check: self-splicing fitness (ln) of AGUAAGCAAUAUUACGAGCU is greater than or equal to -2
Reply: Condition not met

Task item: # check: self-splicing fitness (ln) of AUUGAGCAAUAUUACGCGCG is greater than or equal to -2
Reply: Condition not met

Task item: # check: self-splicing fitness (ln) of GCUGAGCAAUAUUACGUUCG is greater than or equal to -2
Reply: Condition not met

Task item: # check: self-splicing fitness (ln) of UCGCAGCAAUAUUACGUGAG is greater than or equal to -2
Reply: Condition met

Task item: # check: self-splicing fitness (ln) of UGUUAGCAAUAUUACGAAUG is greater than or equal to -2
Reply: Condition met
